# Tested on: Staphylococcus aureus ATCC 29213 (MSSA)
# METHOD_NOTES: minimum inhibitory concentration; extreme values may be limits of the assay
MEASURED_QUANTITY: minimum inhibitory concentration

Known results for compounds:
COMPOUND | EXPERIMENTAL_TARGET | OBSERVED
COc1cccc(OC)c1C(=O)Nc1ccc(Cl)c(-c2nc3ccccc3s2)c1 | Staphylococcus aureus ATCC 29213 (MSSA) | > 50 µM
CN1CCN(c2cc(-c3ccc(F)cc3)nc(-c3ccncc3)n2)CC1 | Staphylococcus aureus ATCC 29213 (MSSA) | > 50 µM
FC(F)(F)c1cc(NCCc2ccccc2)nc(-c2ccccn2)n1 | Staphylococcus aureus ATCC 29213 (MSSA) | > 50 µM
CC1=Nc2ccc(Cl)cc2C(O)(c2ccc(C)cc2)N1CCN1CCCCC1 (configuration not stated) | Staphylococcus aureus ATCC 29213 (MSSA) | > 50 µM
Nc1ncnc2c1ncn2C[C@@H](O)[C@@H](O)C(=O)O | Staphylococcus aureus ATCC 29213 (MSSA) | > 50 µM

In: Tell me measured minimum inhibitory concentration for `O=C(Nc1cccc(Cl)c1)c1cnc(N2CCN(c3ccncc3)CC2)c(Cl)c1` please.
Out: > 50 µM

In: Tell us which minimum inhibitory concentration value is on record for `CC(C)(C)c1cc(C(=O)N2CCN(c3nccnc3C#N)CC2)n(Cc2ccccc2)n1`
Out: > 50 µM

In: Report measured minimum inhibitory concentration; entry is `CCOc1ccc(-c2nc(CNCCc3ccc(F)cc3)cs2)cc1`
Out: > 50 µM

In: Complete the entry with minimum inhibitory concentration for `Nc1ccc2ncnc(Nc3ccc(OCc4cccc(F)c4)c(Cl)c3)c2c1`
Out: > 50 µM

Values from the supplement of paper PMC6206229
